Please provide measured pIC50 for the entries that follow.
- STUDY_TARGET: HCV polymerase (Hepatitis C virus genotype 1b, UniProt P26663)
- Construct: 2.5 pmoles (0.15 μg) HCV polymerase protein in a final volume of 75 μL
- Sequence (P26663 2420-3010): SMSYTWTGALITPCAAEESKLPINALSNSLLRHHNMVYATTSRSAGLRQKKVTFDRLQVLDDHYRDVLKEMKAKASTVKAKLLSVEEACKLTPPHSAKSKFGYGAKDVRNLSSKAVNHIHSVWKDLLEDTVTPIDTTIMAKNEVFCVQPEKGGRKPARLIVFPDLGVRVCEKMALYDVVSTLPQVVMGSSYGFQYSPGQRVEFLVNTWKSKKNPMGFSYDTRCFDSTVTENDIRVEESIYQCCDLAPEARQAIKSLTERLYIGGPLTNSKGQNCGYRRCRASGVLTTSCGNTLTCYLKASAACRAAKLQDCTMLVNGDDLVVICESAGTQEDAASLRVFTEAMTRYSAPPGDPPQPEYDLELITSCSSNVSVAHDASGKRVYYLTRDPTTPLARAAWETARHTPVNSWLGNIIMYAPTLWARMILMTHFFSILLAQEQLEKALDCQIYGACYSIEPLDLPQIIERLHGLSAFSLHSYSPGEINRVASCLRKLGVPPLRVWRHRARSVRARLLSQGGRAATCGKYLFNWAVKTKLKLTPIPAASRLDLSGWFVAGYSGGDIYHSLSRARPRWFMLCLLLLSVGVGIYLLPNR
- ASSAY_OVERVIEW: HCV polymerase primer/template-directed transcription assay (32P-GTP incorporation, filter binding)
- Format: biochemical
- EXPERIMENTAL_CONDITIONS: recombinant HCV polymerase; 30 minutes at 30° C.; concentration giving 50% inhibition of polymerase-directed transcription; read-out: IC50
pIC50 here is simply -log10 of the concentration when that concentration is written in mol/L.

// assay HCV polymerase (Hepatitis C virus genotype 1b, UniProt P26663), entry Cc1cc(C)n2nc(CC3=C(O)CC(CCc4ccc(C5(C#N)CC5)c(Cl)c4)(C4CCCC4)OC3=O)nc2n1 (racemic) [A(200)] , pIC50 value = 8.30

The value of pIC50 recorded for CCc1cc(CCC2(C3CCCC3)CC(=O)C(Cc3nc4nc(C)cc(C)n4n3)C(=O)O2)ccc1N(C)S(C)(=O)=O (stereo not shown) when tested on HCV polymerase (Hepatitis C virus genotype 1b, UniProt P26663) reads 8.00

Measured on HCV polymerase (Hepatitis C virus genotype 1b, UniProt P26663), CC(C#N)c1ccc(CCC2(C3CCCC3)CC(=O)CC(=O)O2)cc1F (stereo not shown) has a documented pIC50 of 6.10

Param item: Cc1cc(C)n2nc(CC3=C(O)CC(COc4ccc(C(C)(C)C#N)c(F)c4)(C4CCCC4)OC3=O)nc2n1 (stereo not shown) ; param system: HCV polymerase (Hepatitis C virus genotype 1b, UniProt P26663); output pIC50: 7.19
